- SYSTEM: recombinant purified human BTK (Homo sapiens)
- TEST SUMMARY: In vitro BTK kinase assay on ADP Glo platform
- STUDY CONDITIONS: 2 hr room temperature, read-out: In-vitro BTK inhibitory activity: IC50
- Description: Testing of Compounds of the Invention Biological Studies: In vitro BTK Inhibitory Activity Assay: In vitro BTK inhibitory activity of test compounds were screened using BTK kinase assay on ADP Glo platform (Li, H., Totoritis, R. D., Lor, L. A., Schwartz, B., Caprioli, P., Jurewicz, A. J and Zhang, G., Assay Drug Dev. Technol., 2009, 7(6), 598-605). […] Finally, plate was read for luminescence at an integration time of 500 millisecond per well. […]
QUANTITY KIND: IC50 (nM)
Just the number in nM, nothing appended.

# annotated cases, reported IC50 shown
1. C=CC(=O)N1CC2CC(n3nc(-c4ccc(C(=O)Nc5cnccn5)cc4)c4c(N)ncnc43)CC2C1 (stereo not drawn) [Compound 37] | 1
2. C=CC(=O)N1CC2CC(n3nc(-c4ccc(Oc5ccccc5)cc4)c4c(N)ncnc43)CC2C1 (stereo not drawn) [Compound 1] | 1.3
3. C=CC(=O)N1CC2CC(n3nc(-c4ccc(C(=O)Nc5cc(C)ccn5)cn4)c4c(N)ncnc43)CC2C1 (stereo not drawn) [Compound 42] | 0.1
4. C=CC(=O)N1CC2CC(n3nc(-c4ccc5c(c4)OCO5)c4c(N)ncnc43)CC2C1 (stereo not drawn) [Compound 15] | 18
5. CN(C)C/C=C/C(=O)N1CC2CC(n3nc(-c4ccc(-c5nnc(-c6ccccn6)o5)cc4)c4c(N)ncnc43)CC2C1 (stereo not drawn) [Compound 57] | 100

Entry C=CC(=O)N1CC2CC(n3nc(-c4ccc(C(=O)Nc5cc(C)ccn5)cc4)c4c(N)ncnc43)CC2C1 (stereo not drawn) [Compound 30] has what IC50?
6

Item: C=CC(=O)N1CC2CC(n3nc(-c4ccc5ocnc5c4)c4c(N)ncnc43)CC2C1 (stereo not drawn) [Compound 22]
40

Item: C=CC(=O)N1CC2CC(n3nc(-c4ccc(NC(=O)c5ccccc5)cc4)c4c(N)ncnc43)CC2C1 (stereo not drawn) [Compound 38]
17

Item: C=CC(=O)N1CC2CC(n3nc(-c4ccc(C(=O)Nc5cc(C(F)(F)F)ccn5)cc4)c4c(N)ncnc43)CC2C1 (stereo not drawn) [Compound 40]
6

---

- SYSTEM: CYP 2C9 (Homo sapiens)
- Construct: from tissue; host or cells: human liver microsomes
- Sequence (P11712 whole entry): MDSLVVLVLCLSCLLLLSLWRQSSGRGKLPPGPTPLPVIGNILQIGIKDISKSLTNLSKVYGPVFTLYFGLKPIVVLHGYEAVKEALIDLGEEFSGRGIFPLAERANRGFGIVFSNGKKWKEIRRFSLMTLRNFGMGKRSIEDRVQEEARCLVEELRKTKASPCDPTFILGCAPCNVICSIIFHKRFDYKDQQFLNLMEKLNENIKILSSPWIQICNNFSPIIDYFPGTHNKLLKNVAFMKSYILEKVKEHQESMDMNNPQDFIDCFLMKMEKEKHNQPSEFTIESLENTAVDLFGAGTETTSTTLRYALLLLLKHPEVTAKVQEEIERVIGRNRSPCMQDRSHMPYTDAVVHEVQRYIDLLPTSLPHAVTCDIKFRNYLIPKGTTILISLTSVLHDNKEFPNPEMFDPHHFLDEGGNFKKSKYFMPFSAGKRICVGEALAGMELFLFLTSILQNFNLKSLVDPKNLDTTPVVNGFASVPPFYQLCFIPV
- TEST SUMMARY: CYP inhibition in human liver microsomes, 2C9
- Type: in vitro ADME
- STUDY CONDITIONS: pH 7.4, @ 10 μM concn
QUANTITY KIND: inhibition at 10 μM

1. C=CC(=O)N1CC2CC(n3nc(-c4ccc(C(=O)Nc5cc(C)ccn5)cn4)c4c(N)ncnc43)CC2C1 (stereo not drawn) [Compound 42] | < 50%

Entry C=CC(=O)N1CC2CN(CCn3nc(-c4ccc(Oc5ccccc5)cc4)c4c(N)ncnc43)CC2C1 (stereo not drawn) [Compound 4] has what inhibition at 10 μM?
< 50%

Item: C=CC(=O)N1CC2CC(N3C(=O)N(c4ccc(Oc5ccccc5)cc4)C4C(N)=NC=NC43)CC2C1 (stereo not drawn) [Compound 25]
< 50%

Item: C=CC(=O)N1CC2CC(n3nc(-c4ccc(-c5nnc(-c6ccccn6)s5)cc4)c4c(N)ncnc43)CC2C1 (stereo not drawn) [Compound 39]
< 50%

Item: C=CC(=O)N1CC2CC(n3nc(-c4ccc(C(=O)Nc5cc(C)ccn5)c(OC)c4)c4c(N)ncnc43)CC2C1 (stereo not drawn) [Compound 29]
< 50%

Item: C=CC(=O)N1CC2CN(c3ccc(Cn4nc(-c5ccc(Oc6ccccc6)cc5)c5c(N)ncnc54)cn3)CC2C1 (stereo not drawn) [Compound 3]
> 50%

Item: CN(C)C/C=C/C(=O)N1CC2CC(n3nc(-c4ccc(-c5nnc(-c6cnccn6)s5)cc4)c4c(N)ncnc43)CC2C1 (stereo not drawn) [Compound 56]
> 50%

Item: CN(C)C/C=C/C(=O)N1CC2CC(n3nc(-c4ccc(C(=O)Nc5ccccn5)cc4)c4c(N)ncnc43)CC2C1 (stereo not drawn) [Compound 44]
< 50%

Item: CN(C)C/C=C/C(=O)N1CC2CC(n3nc(-c4ccc(Oc5cccnc5)cc4)c4c(N)ncnc43)CC2C1 (stereo not drawn) [Compound 53]
< 50%

---

- SYSTEM: CYP 2C8 (Homo sapiens)
- Construct: from tissue; host or cells: human liver microsomes
- Sequence (P10632 1-490): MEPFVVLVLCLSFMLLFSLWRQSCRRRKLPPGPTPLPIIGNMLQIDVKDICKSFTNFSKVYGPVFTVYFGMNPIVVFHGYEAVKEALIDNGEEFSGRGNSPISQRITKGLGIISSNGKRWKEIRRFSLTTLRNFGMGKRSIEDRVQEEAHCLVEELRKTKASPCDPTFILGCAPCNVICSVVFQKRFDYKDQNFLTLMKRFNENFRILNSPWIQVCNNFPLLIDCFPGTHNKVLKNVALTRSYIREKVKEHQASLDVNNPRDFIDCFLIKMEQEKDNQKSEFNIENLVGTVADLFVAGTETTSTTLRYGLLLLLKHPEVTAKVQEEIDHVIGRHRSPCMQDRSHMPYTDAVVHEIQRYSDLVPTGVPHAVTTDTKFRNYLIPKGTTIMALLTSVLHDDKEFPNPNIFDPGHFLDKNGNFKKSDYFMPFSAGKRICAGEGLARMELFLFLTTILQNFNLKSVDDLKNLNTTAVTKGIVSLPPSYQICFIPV
- TEST SUMMARY: CYP inhibition in human liver microsomes, 2C8
- Format: in vitro ADME
- STUDY CONDITIONS: pH 7.4, @ 10 μM concn
The entries below are paired with their reported inhibition at 10 μM.

# annotated cases, reported inhibition at 10 μM shown
1. C=CC(=O)N1CC2CC(n3nc(-c4ccc(-c5nnc(-c6cnccn6)s5)cc4)c4c(N)ncnc43)CC2C1 (centres unmarked) | < 50%
2. C=CC(=O)N1CC2CC(n3nc(-c4ccc5nc(C)sc5c4)c4c(N)ncnc43)CC2C1 (centres unmarked) | < 50%
3. C=CC(=O)N1CC2CC(n3nc(-c4ccc5nc(OC)sc5c4)c4c(N)ncnc43)CC2C1 (centres unmarked) | > 50%
4. C=CC(=O)N1CC2CC(n3cc(-c4ccc(Oc5ccccc5)cc4)c4c(N)ncnc43)CC2C1 (centres unmarked) | < 50%
5. C=CS(=O)(=O)N1CC2CC(n3c(=O)n(-c4ccc(Oc5ccccc5)cc4)c4c(N)ncnc43)CC2C1 (centres unmarked) | < 50%
6. CN(C)C/C=C/C(=O)N1CC2CC(n3nc(-c4ccc(Oc5cccnc5)cc4)c4c(N)ncnc43)CC2C1 (centres unmarked) | < 50%
7. C=CC(=O)N1CC2CC(n3nc(-c4ccc5ncoc5c4)c4c(N)ncnc43)CC2C1 (centres unmarked) | < 50%

# ---- query compound ----
Entry C=CC(=O)N1CC2CC(n3nc(-c4ccc(Oc5ccccc5)c(OC)c4)c4c(N)ncnc43)CC2C1 (centres unmarked) has what inhibition at 10 μM?
> 50%

---

- SYSTEM: recombinant purified human BTK (Homo sapiens)
- TEST SUMMARY: In vitro BTK kinase assay on ADP Glo platform
- STUDY CONDITIONS: 2 hr room temperature, read-out: In-vitro BTK inhibitory activity: IC50
The entries below are paired with their reported pIC50.
Scale note: pIC50 = -log10(concentration in M).

# annotated cases, reported pIC50 shown
1. C=CC(=O)N1CC2CC(n3c(Br)c(-c4ccc(Oc5ccccc5)cc4)c4c(N)ncnc43)CC2C1 (stereo not shown) | 8.80
2. C=CC(=O)N1CC2CC(n3nc(-c4ccc(C(=O)Nc5ccccn5)cc4)c4c(N)ncnc43)CC2C1 (stereo not shown) | 8.74
3. C=CC(=O)N1CC2CC(n3nc(-c4ccc(Oc5cccnc5)cc4)c4c(N)ncnc43)CC2C1 (stereo not shown) | 6.79

Entry CO/C(=N\c1cc(C)ccn1)c1ccc(-c2nn(C3CC4CN(C(=O)/C=C/CN(C)C)CC4C3)c3ncnc(N)c23)cc1 (stereo not shown) has what pIC50?
7.72

---

- SYSTEM: recombinant purified human BTK (Homo sapiens, UniProt Q06187)
- Sequence (Q06187 whole entry): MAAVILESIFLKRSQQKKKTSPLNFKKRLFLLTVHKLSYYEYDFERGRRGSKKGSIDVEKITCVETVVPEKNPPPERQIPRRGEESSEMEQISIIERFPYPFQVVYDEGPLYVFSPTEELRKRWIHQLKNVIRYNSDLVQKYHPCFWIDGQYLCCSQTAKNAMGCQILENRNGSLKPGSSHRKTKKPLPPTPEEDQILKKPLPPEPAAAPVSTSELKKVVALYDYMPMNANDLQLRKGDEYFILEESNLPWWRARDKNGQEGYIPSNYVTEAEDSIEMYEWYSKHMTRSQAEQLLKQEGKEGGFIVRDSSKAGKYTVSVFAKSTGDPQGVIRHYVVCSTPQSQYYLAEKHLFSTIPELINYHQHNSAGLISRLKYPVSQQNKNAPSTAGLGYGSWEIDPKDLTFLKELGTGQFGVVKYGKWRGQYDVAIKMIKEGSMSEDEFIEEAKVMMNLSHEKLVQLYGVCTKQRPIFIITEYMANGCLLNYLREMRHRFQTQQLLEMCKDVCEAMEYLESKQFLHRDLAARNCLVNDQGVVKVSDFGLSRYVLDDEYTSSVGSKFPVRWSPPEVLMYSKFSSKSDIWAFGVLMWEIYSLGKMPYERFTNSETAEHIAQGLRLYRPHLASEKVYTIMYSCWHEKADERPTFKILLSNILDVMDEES
- TEST SUMMARY: In vitro BTK kinase assay on ADP Glo platform
- STUDY CONDITIONS: 2 hr room temperature, read-out: In-vitro BTK inhibitory activity: IC50
QUANTITY KIND: IC50 (nM)
Just the number in nM, nothing appended.

# annotated cases, reported IC50 shown
1) C=CC(=O)N1CC2CC(n3nc(-c4ccc5ncsc5c4)c4c(N)ncnc43)CC2C1 (centres unmarked) | 1.1
2) C=CC(=O)N1CC2CN(CCn3nc(-c4ccc(Oc5ccccc5)cc4)c4c(N)ncnc43)CC2C1 (centres unmarked) | 2
3) Cc1ccnc(N(C)C(=O)c2ccc(-c3nn(C4CC5CN(C(=O)/C=C/CN(C)C)CC5C4)c4ncnc(N)c34)cc2)c1 (centres unmarked) | 80
4) C=CC(=O)N1CC2CC(n3nc(-c4ccc5c(c4)OC(F)(F)O5)c4c(N)ncnc43)CC2C1 (centres unmarked) | 1.1
5) C=CC(=O)N1CC2CC(n3nc(-c4ccc5oc(-c6ccccc6)nc5c4)c4c(N)ncnc43)CC2C1 (centres unmarked) | 48
6) C=CC(=O)N1CC2CC(n3cc(-c4ccc(Oc5ccccc5)cc4)c4c(N)ncnc43)CC2C1 (centres unmarked) | 0.6
7) C=CC(=O)N1CC2CC(n3nc(-c4ccc5nc(NC(C)=O)sc5c4)c4c(N)ncnc43)CC2C1 (centres unmarked) | 28

# ---- query compound ----
Entry C=CC(=O)N1CC2CC(n3nc(-c4ccc(-c5nnc(C)o5)cc4)c4c(N)ncnc43)CC2C1 (centres unmarked) has what IC50?
1.7
